- target: Fbw7 (UniProt Q969H0 263-707, limits assumed)
- Sequence (Q969H0 263-707 limits assumed): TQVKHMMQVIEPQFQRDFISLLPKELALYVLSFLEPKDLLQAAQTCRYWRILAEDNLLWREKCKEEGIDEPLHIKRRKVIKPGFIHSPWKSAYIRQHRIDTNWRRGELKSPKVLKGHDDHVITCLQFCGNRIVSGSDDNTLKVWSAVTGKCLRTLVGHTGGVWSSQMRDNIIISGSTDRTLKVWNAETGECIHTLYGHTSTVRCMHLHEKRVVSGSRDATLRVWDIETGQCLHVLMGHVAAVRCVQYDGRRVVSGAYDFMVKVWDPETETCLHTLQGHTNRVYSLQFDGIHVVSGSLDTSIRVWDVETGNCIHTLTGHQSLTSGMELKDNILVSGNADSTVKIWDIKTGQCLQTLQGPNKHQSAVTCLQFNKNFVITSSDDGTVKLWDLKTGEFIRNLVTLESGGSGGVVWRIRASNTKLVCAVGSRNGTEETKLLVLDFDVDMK
- test-details: cell-based or functional assay
Non-standard residues stand in square brackets, D forms with d. No end group written: not given here. *: point of attachment. Phe(3-Cl) = N[C@@H](Cc1cccc(Cl)c1)C(=O)O; Phe(3-F) = N[C@@H](Cc1cccc(F)c1)C(=O)O; pS = N[C@@H](COP(=O)(O)O)C(=O)O; Tos = Cc1ccc(S(=O)(=O)*)cc1; Propionyl = CCC(=O)*; Bz = O=C(c1ccccc1)*
assay-metric: % Inhibition Fbw7 @ 10 µM (%)
Give just the numeric value; % need not be written.

| binder | % Inhibition Fbw7 @ 10 µM [%] |
| --- | --- |
| Propionyl-[dD]EG[Phe(3-F)]WE-NH2 (also called UBP019) [Et(CO)-dEGF(3F)WE-NH2] | 0 |
| D[pS]GIFE-NH2 (N-terminus assumed; SMILES CC[C@H](C)[C@H](NC(=O)CNC(=O)[C@H](COP(=O)(O)O)NC(=O)[C@@H](N)CC(=O)O)C(=O)N[C@@H](Cc1ccccc1)C(=O)N[C@@H](CCC(=O)O)C(N)=O) [DpSGIFE-NH2] | 0 |
| Tos-[dD]EG[Phe(3-Cl)]WE-NH2 (SMILES Cc1ccc(S(=O)(=O)N[C@H](CC(=O)O)C(=O)N[C@@H](CCC(=O)O)C(=O)NCC(=O)N[C@@H](Cc2cccc(Cl)c2)C(=O)N[C@@H](Cc2c[nH]c3ccccc23)C(=O)N[C@@H](CCC(=O)O)C(N)=O)cc1, also called UBP034) [Ts-dEGF(3Cl)WE-NH2] | 8 |

Prompt: I am curious: what % Inhibition Fbw7 @ 10 µM value has been reported for Ac-[dD]EG[Phe(3-F)]WE-NH2 (also called UBP017) [Ac-dEGF(3F)WE-NH2] ?
Response: 3

Prompt: // % Inhibition Fbw7 @ 10 µM lookup, key: Bz-[dD]EG[Phe(3-F)]WE-NH2 (also called UBP018) [Bz-dEGF(3F)WE-NH2]
Response: 0

These entries and their values trace back to patent US20190106460A1.
